Tested on: A549DDP (LC)
Test: MTT cell viability, A549DDP
Format: cell-based, human
Settings: 48 h / 24 hours, relative IC50
Protocol: Cell culture: In the following examples, unless otherwise specified, all cell lines are purchased from American Type Culture Collection and cultured in American Type Culture Collection (ATCC)-recommended media, with fetal bovine serum (FBS) to a final concentration of 10% and 1×penicillin/streptomycin at 37° C. with 5% CO2 in a cell culture incubator, unless otherwise specified. Unless otherwise specified, culture is 2D. Where culture is 3D, low attachment plates are used, with the same media. […]
observable: IC50

Query string: Could you share what IC50 was measured for CC1(C)C(/C=C/C2=C(Cl)C(=C/C=C3/N(CCCCCC(=O)O)c4ccccc4C3(C)C)/CCC2)=[N+](CCCCS(=O)(=O)[O-])c2ccccc21 [DZ1] , tested on A549DDP (LC)?
Result string: > 50 µM
